Collected IC50 for Aurora kinase A (Homo sapiens) across several studies; compounds listed below.
Answer in µM, number only, no unit symbol.

Cc1cc(Nc2cc(C)[nH]n2)nc(N2CC[C@H](NC(=O)OC(C)(C)C)C2)n1: 0.028
Oc1ccc(Nc2nccc(-c3cccc(O)c3)n2)cc1: 0.006
Cn1cc(-c2n[nH]c3cc(-c4ccc(NC(=O)Nc5cccc(Cl)c5)cc4)ccc23)cn1: 0.267
COc1ccc(-c2nc(C(N)=O)c(-c3ccc(N4CCNC(C)(C)C4)cc3)o2)c2cc[nH]c12: 0.0205
O=C(O)CCc1c(/C=C2\C(=O)Nc3cc(-c4ccc(O)cc4)ccc32)[nH]c2c1C(=O)CCC2: 0.0863

## Input Give the measured IC50 of CCOC(=O)c1[nH]c(C)c(-c2ccnc(Nc3ccc(N4CCOCC4)c(OC)c3)n2)c1C .
## Output 0.091

## Input Same lookup for CCOC(=O)c1[nH]c(C)c(-c2ccnc(Nc3ccc(N4CCOCC4)c(Cl)c3)n2)c1C , please.
## Output 3.03

## Input // query: NC(=O)[C@]1(Cc2cccc(Nc3cc[nH]n3)n2)CC[C@@H](Oc2cccc(Cl)c2F)CC1
## Output 0.0018

---

Study the reported IC50 values for Aurora kinase A (Homo sapiens, UniProt O14965) given below; they originate from different publications.

CC(C)N1C(=O)C(C)(C)c2cc3nc(-c4n[nH]c5ccccc45)[nH]c3cc21: 28 nM
Cc1cccc(NC(=O)Nc2ccc(-c3ccc4c(-c5ccsc5)n[nH]c4c3)cc2)c1: > 12500 nM
COc1c(Nc2ncc(C(F)(F)F)c(Nc3cccc4c3C(=O)NC4)n2)ccc(N2CCC(N3CCN(C)CC3)CC2)c1F: 11 to 100 nM

## Input // query IC50 value for entry COc1cc(-c2cnc3[nH]c(=O)n(Cc4ccc(N)cc4)c3n2)cc(OC)c1OC
## Output < 500 nM

---

pIC50: −log10 of the molar value.
// cross-study collection: pIC50 for Aurora kinase A (Homo sapiens, UniProt O14965)

Here's what some known entries look like.
Cc1noc(C2(Cc3ccc(F)c(Nc4cc(C)[nH]n4)n3)CCN(C(=O)c3cccc(Cl)c3F)CC2)n1: 9.10
CNS(=O)(=O)c1ccc2c(c1)/C(=C/c1[nH]c3c(c1CCC(=O)O)C(=O)CCC3)C(=O)N2: 7.51
[2H]C1([2H])C([2H])([2H])C2(COc3cccc(-c4cn([C@H]5C[C@@H](N6CC[S+]([O-])CC6)C5)c5ncnc(N)c45)c3F)OC1([2H])C([2H])([2H])C2([2H])[2H]: < 5.00
CC(=O)N1CCN([C@H]2C[C@H](n3cc(-c4cc(OC[C@@H]5CCCO5)ccc4F)c4c(N)ncnc43)C2)CC1: < 5.00
COc1cc2c(Nc3ccc(NC(=O)c4ccccc4)cc3)ccnc2cc1OCC[C@H](N)C(=O)O: < 5.30

## Input Requested read-out: pIC50. Entry: Cc1c(-c2ccnc(Nc3ccc(OCCN4CCOCC4)cc3)n2)c(C)n2c1C(=O)NCC2
## Output > 6.00

## Input Also need Cc1cc(Nc2nn(-c3ccc(NC(=O)c4ccccc4)cc3)c(=O)c3ccccc23)n[nH]1 , thanks.
## Output 6.00 to 7.00

---

pIC50: −log10 of the molar value.
Compiled from multiple publications: pIC50 readings for Aurora kinase A (Homo sapiens).

O=C(Nc1ccc(-c2ccc3c(-c4ccn[nH]4)n[nH]c3c2)cc1)Nc1cccc(F)c1: 5.47
Cc1c2ccc(Nc3ncc(Cl)c(NC4CCN(c5ccc(C#N)cn5)CC4)n3)cc2nn1C: 6.30
CC1C(=O)Nc2cc3[nH]c(-c4n[nH]c5ccccc45)nc3cc21 (centres unmarked): 6.60 to 7.00
CCN(CC)c1ccc(Nc2nccc(-c3c(C)c4n(c3C)CCNC4=O)n2)cc1: > 6.00
COc1cc(-c2cnc3[nH]c(=O)n(Cc4cccc(N)c4)c3n2)cc(OC)c1OC: 6.00 to 6.30
COc1cc2c(Oc3ccc(NC(=O)Nc4ccc(C(F)(F)F)cc4)cc3)ccnc2cc1OCCC[C@H](N)C(=O)O: > 5.70
COc1ccc(-c2cn[nH]c2-c2c[nH]c(C(=O)NCC3CCCN(C(=O)OC(C)(C)C)C3)c2)cc1OC (centres unmarked): 5.00 to 5.30

Here is another molecule to look at.
## Input Would you kindly share the measured pIC50 for COc1cccc(Nc2nccc(-c3nccs3)n2)c1 ?
## Output 5.70 to 6.30
